procedure.details: Percent oral bioavailability was measured in rat after administration of compound 20 mg/kg perorally
Assay type: ADME, organism-based
experimental.parameters: in vivo
property.name: bioavailability (%)

CCCC[C@@H](C[C@@H](CCc1ccc(-c2ccc(F)cc2)cc1)C(=O)N[C@H](C(=O)NC)C(C)(C)C)C(=O)O 60

---

Observed Ki values for Stromelysin-1 (Homo sapiens) are listed in what follows.
property.name: Ki (nM)

molecule	unit.text	quantitative.result
CCCC[C@@H](C[C@@H](CCc1ccc(C2CCCO2)cc1)C(=O)N[C@H](C(=O)NC)C(C)(C)C)C(=O)O (some centres not stated)	nM	1400
CCCC[C@@H](C[C@@H](CCc1ccccc1)C(=O)N[C@H](C(=O)NC)C(C)(C)C)C(=O)O	nM	3800
CCCC[C@@H](C[C@@H](CCc1ccc(-c2ccc(OC)cc2)cc1)C(=O)N[C@H](C(=O)NC)C(C)(C)C)C(=O)O	nM	13
CCCC[C@@H](C[C@@H](CCc1ccc(-c2ccc(C#N)cc2)cc1)C(=O)N[C@H](C(=O)NC)C(C)(C)C)C(=O)O	nM	9
CCCC[C@@H](C[C@@H](CCc1ccc(-c2cccc(N)c2)cc1)C(=O)N[C@H](C(=O)Nc1ccccc1)C(C)(C)C)C(=O)O	nM	27
CCCC[C@@H](C[C@@H](CCc1ccc(-c2ccc(F)cc2)cc1)C(=O)N[C@H](C(=O)Nc1ccncc1)C(C)(C)C)C(=O)O	nM	2
CCCC[C@@H](C[C@@H](CCc1ccc(-c2cc3ccccc3[nH]2)cc1)C(=O)N[C@H](C(=O)NC)C(C)(C)C)C(=O)O	nM	12
